System: MALME-3M melanoma
Assay: NCI-60 one-dose screen, 48 h (100 = growth as untreated, 0 = no growth, -100 = all killed)
Settings: 10 µM unless noted
This is part of a sample that, as a whole, favours compounds with a hit. Of some 83,000 tested, about 20% had one in any assay.

| COMPOUND | growth, % |
| --- | --- |
| COCCCOc1cc(C[C@@H](C[C@H](N)[C@@H](O)C[C@H](C(=O)NCC(C)(C)C(N)=O)C(C)C)C(C)C)ccc1OC | 109 |
| CN1CCN(Cc2ccc(NC(=O)c3cncc(C#Cc4cnn5ccccc45)c3)cc2C(F)(F)F)CC1 | -61.3 |
| Nc1n[nH]c2ccc([C@@H]3Nc4cc5[nH]ncc5cc4[C@H]4C5CCC(C5)[C@@H]34)cc12 (some centres undefined) | 46.9 |
| O=C(/C=C/C12c3ccccc3C(c3ccccc31)C1C(=O)NC(=O)C12)c1ccccn1 (centres undefined) | 19.1 |
| COc1cc(N2C(=O)[C@H](c3ccccc3)C2c2ccc(SC)cc2)cc(OC)c1OC (some centres undefined) | 63.3 |
| COc1ccc(-c2ccc(-c3ccc(C(=N)N)cn3)s2)cc1 | 102 |
| COc1ccc(Cn2cc(C(=O)N=Nc3c(O)[nH]c4c(Cl)cccc34)nn2)cc1 | 99.7 |
| O=C(Nc1ncc(Cc2ccccc2Cl)s1)c1cccs1 | 69.1 |
| Nc1ncnc2c1c(-c1ccc(Oc3ccccc3)cc1)nn2CC1SSCC1O (centres undefined) | -34.8 |

---

Tested on: UACC-257 melanoma
Test: NCI-60 one-dose screen, 48 h (100 = growth as untreated, 0 = no growth, -100 = all killed)
Conditions: 10 µM unless noted
The panel holds about 83,000 compounds, 20% with a hit somewhere; the sample as a whole holds those more often.

| MOLECULE | TARGET OR TEST SYSTEM | MEASUREMENT UNIT | growth |
| --- | --- | --- | --- |
| C/C(=N\Nc1nc(C)cs1)c1cc2ccccc2o1 | UACC-257 melanoma | % | 102 |
| NC(=S)N/N=C/c1cn(-c2ccccc2)nc1-c1cc2ccccc2oc1=O | UACC-257 melanoma | % | 71.5 |
| C=C1C(=O)O[C@H]2[C@H]1CC/C(COC(=O)c1cc3cc(F)ccc3[nH]1)=C\CC[C@@]1(C)O[C@@H]21 | UACC-257 melanoma | % | -79.5 |
| COc1ccc2c(c1)c(-c1nc(-c3cn(C)c4ncccc34)cs1)cn2CCO | UACC-257 melanoma | % | 92.4 |
| C=C(c1ccc(C(=O)O)cn1)c1cc2c(cc1C)C(C)(C)CCC2(C)C | UACC-257 melanoma | % | 84 |
| C[C@@H](CO)[C@@H]1CC[C@]2(C(=O)N3CCN(C)CC3)CC[C@]3(C)[C@H](CC[C@@H]4[C@@]5(C)CC[C@H](O)C(C)(C)[C@@H]5CC[C@]43C)[C@@H]12 | UACC-257 melanoma | % | 98 |
| O=C1NC(=O)c2c1c1c3ccccc3[nH]c1c1oc3ccc(F)cc3c21 | UACC-257 melanoma | % | 95.1 |
| C=CCn1c(SCC(=O)Nc2ccc(C(=O)/C=C/c3ccc(OC)cc3)cc2)nnc1-c1ccccc1 | UACC-257 melanoma | % | 104 |
| CC1COCC(C)N1C1=C(Cl)C(=O)c2ccccc2C1=O (centres undefined) | UACC-257 melanoma | % | 37.1 |
